Entry source: patent US20180057604A1

# tested_system: T1, human BACE1 ECD
# T1 construct: analyte of the Octet assay (200 nM) and enzyme of the first short substrate assay; also called human BACE1 extracellular domain
# T1 sequence (single chain, as listed by the source limits assumed): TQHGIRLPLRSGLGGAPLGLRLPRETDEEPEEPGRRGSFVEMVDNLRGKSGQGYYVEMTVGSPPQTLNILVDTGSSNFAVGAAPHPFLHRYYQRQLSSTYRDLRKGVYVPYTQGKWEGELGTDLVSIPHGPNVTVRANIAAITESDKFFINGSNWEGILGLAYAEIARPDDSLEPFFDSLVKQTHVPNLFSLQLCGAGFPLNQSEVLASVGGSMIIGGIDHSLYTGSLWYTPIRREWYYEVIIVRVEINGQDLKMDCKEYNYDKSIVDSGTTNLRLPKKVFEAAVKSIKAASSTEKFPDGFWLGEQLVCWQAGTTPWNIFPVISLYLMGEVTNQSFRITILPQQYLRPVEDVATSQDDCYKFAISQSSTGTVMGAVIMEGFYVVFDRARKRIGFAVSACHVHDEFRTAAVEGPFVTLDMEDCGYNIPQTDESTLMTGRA
# experiment_summary: Octet, pH 5.0;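 note: antibodies captured on anti-human capture sensor tips, dissociation monitored in PBS with BSA buffer, kinetics fitted with a one-to-one binding model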
Property: pKd; scope: individual binders
Note on pKd: it is the negative log10 of concentration, concentration in mol/L.

5890 (antibody, V domains shown, anti-BACE1 IgG) VH: QVQLVQSGAEVKKPGSSVKVSCKASGGTFSSYAISWVRQAPGQGLEWMGNIIPGFGTANYAQKFQGRVTITADESTSTAYMELSSLRSEDTAVYYCARSGGTKYGMLDVWGQGTMVTVSS VL: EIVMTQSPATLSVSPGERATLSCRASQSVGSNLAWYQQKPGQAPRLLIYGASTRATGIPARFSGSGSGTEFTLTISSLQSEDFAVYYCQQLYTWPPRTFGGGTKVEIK; 9.19

Problem: Please report the recorded pKd for 5985 (antibody, V domains shown, anti-BACE1 IgG) VH: QLQLQESGPGLVKPSETLSLTCTVSGGSISSSSYYWGWIRQPPGKGLEWIGNIYYSGSTYYNPSLKSRVTISVDTSKNQFSLKLSSVTAADTAVYYCARLGHGYNYFDLWGRGTLVTVSS VL: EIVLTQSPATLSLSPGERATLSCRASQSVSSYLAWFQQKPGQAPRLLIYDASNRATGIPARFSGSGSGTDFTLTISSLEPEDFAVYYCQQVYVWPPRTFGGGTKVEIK .
Result: 9.17

Problem: Looking for the measured pKd of 5891 (antibody, V domains shown, anti-BACE1 IgG) VH: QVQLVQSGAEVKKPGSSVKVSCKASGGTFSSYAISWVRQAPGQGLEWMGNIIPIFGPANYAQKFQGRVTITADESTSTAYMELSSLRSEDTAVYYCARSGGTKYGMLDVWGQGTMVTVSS VL: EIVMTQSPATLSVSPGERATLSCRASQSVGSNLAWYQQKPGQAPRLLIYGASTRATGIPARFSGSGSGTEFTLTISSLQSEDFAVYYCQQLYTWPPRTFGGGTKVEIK , can you help?
Result: 9.02

Problem: pKd lookup needed for 5893 (antibody, V domains shown, anti-BACE1 IgG) VH: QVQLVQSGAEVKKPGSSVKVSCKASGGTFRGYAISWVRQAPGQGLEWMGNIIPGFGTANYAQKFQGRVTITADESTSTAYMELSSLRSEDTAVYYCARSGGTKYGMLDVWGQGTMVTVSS VL: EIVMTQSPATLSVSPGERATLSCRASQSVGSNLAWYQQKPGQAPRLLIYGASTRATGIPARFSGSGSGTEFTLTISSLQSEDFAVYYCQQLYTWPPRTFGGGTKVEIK , thanks.
Result: 9.42
